- System: NCI-H460 lung

[
  {
    "molecule": "O=C(N/N=C/c1cccc(O)c1)c1ccc(C(F)(F)F)nc1Nc1cccc(C(F)(F)F)c1",
    "GI50": "1.74 µM"
  },
  {
    "molecule": "COC(=O)[C@]1(C)CC[C@]2(C)CC[C@]3(C)C(=CC(=O)[C@@H]4[C@@]5(C)CCC(=O)NC(C)(C)[C@@H]5CC[C@]43C)[C@@H]2C1",
    "GI50": "20.1 µM"
  },
  {
    "molecule": "CC(=O)Nc1nc(C)c(-c2cc3c(c(S(C)(=O)=O)c2)C(=O)N([C@@H](C)C2CC2)C3)s1",
    "GI50": "37.1 µM"
  },
  {
    "molecule": "C[C@H](c1ccc(Cl)cc1[N+](=O)[O-])N1C(=O)c2cc(I)ccc2NC(=O)[C@H]1c1ccc(Cl)cc1",
    "GI50": "6.61 µM"
  },
  {
    "molecule": "O=C(CN1CCN(c2ccccn2)CC1)Nc1ccc(Cl)cc1C(=O)c1ccccc1Cl",
    "GI50": "93.6 µM"
  },
  {
    "molecule": "COc1ccc(CNC(=O)c2c(C)n([O-])c3cc(F)c(F)cc3[n+]2=O)cc1",
    "GI50": "13.1 µM"
  },
  {
    "molecule": "CC(=O)N1c2ccc(-c3ccc(C(=O)O)cc3)cc2[C@H](Nc2ccc(Cl)cc2)C[C@@H]1C",
    "GI50": "1.61 µM"
  },
  {
    "molecule": "CCN1C(=O)N(CC)C2C1NN=c1s/c(=C\\c3cnc(C)n3C)c(=O)n12 (centres undefined)",
    "GI50": "2.67 µM"
  },
  {
    "molecule": "CC1SC(c2cccc(Cl)c2)N(NC(=O)C(O)c2ccccc2)C1=O (centres undefined)",
    "GI50": "> 100 µM"
  }
]

meta.source: PubChem BioAssay (NCI)
